assay: qHTS assay for small molecule agonists of the antioxidant response element (ARE) signaling pathway - cell viability counter screen (AID 743203); conditions: ARE-bla HepG2 viability, CellTiter-Glo luminescence, 16 h; series mostly up to 73.3 µM; also: nearly all actives have a fitted effect of over 55% in size
Results filed as inconclusive are left out. Activity calls are given as the source filed them. Calls follow the shape of the full dose curve.
VALUE_KIND: outcome

C1=Cc2cccc3cccc1c23 = inactive
S=C1NCCN1 = inactive
Cc1cc(C)cc(C)c1 = inactive

----------
assay: Caspase-3/7 induction in CHO-K1 cells by small molecules, qHTS cell viability counter screen (AID 1346979); details: CellTiter-Fluor fluorescence, 17 h; series mostly up to 92.4 µM; also: nearly all actives have a fitted effect of over 35% in size
Results filed as inconclusive are left out. Activity calls are given as the source filed them. Calls follow the shape of the dose curve; as a rule, active = well fitted cell-killing curve with a large enough effect in the repeat runs; inconclusive = weak or mixed curves, or effect the other way; inactive = no such curve, though single readings can be large or run the other way.
Log the outcome using a class from active, inactive

Request: Recorded test call requested for c1ccc(P(c2ccccc2)c2ccccc2)cc1
Response: inactive

Request: Could you kindly confirm the outcome this assay logged for Oc1c(Cl)c(Cl)c(Cl)c(Cl)c1Cl ?
Response: inactive

Request: Tell me the recorded outcome of this test for Cc1cc(C)cc(C)c1 .
Response: inactive

Request: Each compound tested received a call. Report the one for CCN(N=O)C(N)=O .
Response: inactive

Request: Please indicate how the test categorized O=C(O)CC[N+](=O)[O-] .
Response: inactive

Request: State the result this test recorded for CCCCCCOC(=O)c1ccccc1C(=O)OCCCCCC .
Response: inactive

Request: # lookup: test call for O=[N+]([O-])c1c(Cl)c(Cl)c(Cl)c(Cl)c1Cl
Response: inactive

Request: Could you please tell me the result logged for Nn1cnnc1 in this assay?
Response: inactive

Request: Give the logged outcome of this assay for the following compound: CCc1cccc(CC)c1N(COC)C(=O)CCl
Response: active

Request: Assay outcome for O=Cc1ccco1 : what was it?
Response: inactive

Request: Which outcome did this test record for the compound CCCCNC(=O)n1c(NC(=O)OC)nc2ccccc21 ?
Response: active

Request: Per the assay record, what outcome was assigned to O=C(O)C(F)(F)C(F)(F)C(F)(F)C(F)(F)C(F)(F)C(F)(F)C(F)(F)F ?
Response: inactive

Request: # lookup: test call for NCc1cccnc1
Response: inactive

Request: What did the test return for CCCCCCCCCCCOC(=O)c1ccccc1C(=O)OCCCCCCCCCCC ?
Response: inactive

Request: Record request — test call for CCCCCCCCOC(=O)c1ccccc1C(=O)OCCCCCCCC
Response: inactive

Request: Please state the recorded outcome for this compound: C=CCc1ccc2c(c1)OCO2
Response: inactive

----------
experiment: qHTS RealTime-Glo MT Cell Viability Assay in HepG2 cells - 0 hour (AID 1224889); conditions: RealTime-Glo luminescence; series mostly up to 76.8 µM; also: nearly all actives have a fitted effect of over 50% in size
Results filed as inconclusive are left out. Activity calls are given as the source filed them. Calls come from the whole dose curve; as a rule, active = well fitted cell-killing curve with a large enough effect in the repeat runs; inconclusive = weak or mixed curves, or effect the other way; inactive = flat fitted curve, though single readings scatter.
Write down one outcome, taken from 1 = active, -1 = inactive

Request: For CCCCNC(=O)n1c(NC(=O)OC)nc2ccccc21 , what call appears in the results of this test?
Response: -1

Request: Identify the outcome logged in this assay for the compound shown: CCc1cccc(CC)c1N(COC)C(=O)CCl
Response: -1

Request: What is the recorded call for this compound in the test? CC1(C)C(C=C(Cl)Cl)C1C(=O)OC(C#N)c1cccc(Oc2ccccc2)c1 (stereo not given)
Response: -1

Request: Look up the recorded call for N#CCCCl in this test.
Response: -1

Request: Hi, sorry to bother you, what did the test record for CCCCN(CC)c1c([N+](=O)[O-])cc(C(F)(F)F)cc1[N+](=O)[O-] ?
Response: -1

Request: Identify the outcome logged in this assay for the compound shown: CCCCCCCCCCCOC(=O)c1ccccc1C(=O)OCCCCCCCCCCC
Response: -1

Request: Tell me the assay call for CC(C)=CC1C(C(=O)OCc2coc(Cc3ccccc3)c2)C1(C)C (stereo not given) please.
Response: -1

Request: Each compound tested received a call. Report the one for ClC1C(Cl)C(Cl)C(Cl)C(Cl)C1Cl (stereo not given) .
Response: -1

Request: Kindly provide the recorded test outcome for the following compound: N#Cc1cc(Br)c(O)c(Br)c1
Response: -1

Request: What did this assay record as the result for O=[N+]([O-])c1c(Cl)c(Cl)c(Cl)c(Cl)c1Cl ?
Response: -1

Request: Status in this test for Oc1ccc(-c2ccccc2)cc1 ?
Response: -1

Request: # lookup: test call for C#CCOS(=O)OC1CCCCC1Oc1ccc(C(C)(C)C)cc1 (stereo not given)
Response: -1

Request: Outcome? Cc1ccc(OP(=O)(Oc2ccc(C)cc2)Oc2ccc(C)cc2)cc1
Response: -1

Request: Per the assay record, what outcome was assigned to Nc1ccc(Cl)cc1N ?
Response: -1

Request: For Cc1ccc(N)c(N)c1 , which call appears in the assay record?
Response: -1

Request: Fill in: this test's call for CCC(C)c1ccc(O)cc1 (stereo not given) is ___
Response: -1

Request: Give the logged outcome of this assay for the following compound: Nc1ccc(Cl)c(Cl)c1
Response: -1

Request: In this assay, the call recorded for CCC(C)c1cc([N+](=O)[O-])cc([N+](=O)[O-])c1O (stereo not given) was what?
Response: -1

Request: Please indicate how the test categorized CCC(C)(c1ccc(O)cc1)c1ccc(O)cc1 .
Response: -1

Request: Check the results log: what was the call for c1nc[nH]n1 ?
Response: -1

Request: State the result this test recorded for CCCCOCCOP(=O)(OCCOCCCC)OCCOCCCC .
Response: -1

Request: Hi team, can someone confirm the assay call for COc1ccc(C=O)cc1 ?
Response: -1

Request: What did the test return for Nc1ccncc1 ?
Response: -1

Request: Could you please tell me the result logged for Cc1c(COC(=O)[C@@H]2[C@H](/C=C(\Cl)C(F)(F)F)C2(C)C)cccc1-c1ccccc1 in this assay?
Response: -1

Request: Each compound tested received a call. Report the one for CC(C)N(C(=O)SCC(Cl)=C(Cl)Cl)C(C)C .
Response: -1

Request: What call does the record list for CN(C)C(=O)Nc1ccc(Cl)cc1 ?
Response: -1

Request: Hi, do you know how Cc1ccc2c(c1N)C(=O)c1ccccc1C2=O came out in this test?
Response: -1

Request: Entry CCN(CC)C(=O)SCc1ccc(Cl)cc1 : call = ?
Response: -1

Request: Recorded test call requested for O=P(O)(O)CCCl
Response: -1

Request: Short answer needed: outcome of this test for O=C(O)CC[N+](=O)[O-] ?
Response: -1

Request: For this compound, state the assay outcome: NNC(=S)NN
Response: -1

Request: // param item: c1cc(OCC2CO2)ccc1Cc1ccc(OCC2CO2)cc1 (stereo not given) ; yields the recorded call
Response: -1

Request: // return assay outcome for O=[N+]([O-])c1cccc2ccccc12
Response: -1

Request: # fetch the recorded call for O=C(Nc1ccc(Br)cc1)c1cc(Br)cc(Br)c1O here
Response: 1

Request: Per the records of this test, what outcome belongs to CCCCCc1cc(O)cc(O)c1 ?
Response: -1

Request: // outcome(item) with item = CNC(=O)N(C)c1nnc(C(C)(C)C)s1
Response: -1

Request: Dear all, I need the recorded test outcome for CCCCCCOC(=O)c1ccccc1C(=O)OCCCCCC , thank you.
Response: -1

Request: GET /call?item= c1ccc(N=Nc2ccccc2)cc1 returns the recorded outcome of this test.
Response: -1

Request: How was Nc1cccnc1 classified in this test?
Response: -1

Request: Hey, what did the test say about O=Cc1ccco1 ?
Response: -1

Request: Assay outcome for CCOc1cc(C=O)ccc1O : what was it?
Response: -1

Request: Tell me the recorded outcome of this test for COc1ccc(C(CN(C)C)C2(O)CCCCC2)cc1 (stereo not given) .
Response: -1

Request: How did this test come out for Oc1cc(Cl)ccc1Cl ?
Response: -1

Request: Entry O=P(Oc1ccccc1)(Oc1ccccc1)Oc1ccccc1 : call = ?
Response: -1

Request: Lab log entry: N#CC(Br)Br — outcome as called in the assay?
Response: -1

Request: Can you look up the reported call for Oc1cc(Cl)c(Cl)cc1Cl for me?
Response: -1

Request: Field: outcome | Entry: O=C(O)C(F)(F)C(F)(F)C(F)(F)C(F)(F)C(F)(F)C(F)(F)C(F)(F)F
Response: -1

Request: Record request — test call for CCCCCCCCOC(=O)c1ccccc1C(=O)OCCCCCCCC
Response: -1

Request: Kindly provide the recorded test outcome for the following compound: O=C(NC(=O)c1c(F)cccc1F)Nc1ccc(Cl)cc1
Response: -1

Request: Hi, sorry to bother you, what did the test record for Nc1ccc(-c2ccc(N)c(N)c2)cc1N ?
Response: -1
